species: Rattus norvegicus; assay: DrugMatrix - Regimen: Daily Repeat; assay type: toxicity, organism-based, Sprague-Dawley; design: regimen Daily Repeat, gender Male, age 6-8 weeks; conditions: in vivo, po, 0 mg/kg, 72 h, tissue Plasma, route oral GAVAGE, dose level Control, time 3 day, […]
# note: exactly 0.7 mg/dL is not below, so it is -1; use 1 for URIC ACID strictly under it

Input line: Lab note: URIC ACID threshold 0.7 mg/dL. Does this compound come in strictly under it? Cc1cccc(C)c1NC(=O)C(C)N (stereo not drawn) [TOCAINIDE]
Output line: 1

Input line: `CO[C@H]1O[C@@H]2O[C@@]3(C)CC[C@H]4[C@H](C)CC[C@@H]([C@H]1C)[C@@]24OO3` , same question.
Output line: -1

Input line: Can you handle `CS(=O)(=O)c1ccc(C2=C(c3ccccc3)C(=O)OC2)cc1` next?
Output line: -1

Input line: Can you handle `Oc1ncnc2[nH]ncc12` next?
Output line: -1

Input line: O=C(Nc1ccc(Cl)c(Cl)c1)c1cc(Cl)cc(Cl)c1O [3,3',4',5-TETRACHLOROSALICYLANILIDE] ?
Output line: -1

Input line: Thanks! And `CC#C[C@]1(O)CC[C@H]2[C@@H]3CCC4=CC(=O)CCC4=C3[C@@H](c3ccc(N(C)C)cc3)C[C@@]21C` ?
Output line: 1

Input line: Request: `CCOC(=O)C1=C(C)NC(C)=C(C(=O)OCC)C1c1ccccc1/C=C/C(=O)OC(C)(C)C`
Output line: -1

Input line: Try the compound `c1ccc2c(c1)Nc1ccccc1S2`
Output line: -1

Input line: Query `CCC(C)(C)C(=O)O[C@H]1C[C@@H](C)C=C2C=C[C@H](C)[C@H](CC[C@@H]3C[C@@H](O)CC(=O)O3)[C@H]21` next
Output line: 1

====

species: Rattus norvegicus; experiment: DrugMatrix - Regimen: Daily Repeat; assay type: toxicity, organism-based, Sprague-Dawley; design: regimen Daily Repeat, gender Male, age 6-8 weeks; conditions: in vivo, po, 0 mg/kg, 72 h, tissue Blood, route oral GAVAGE, dose level Control, time 3 day, […]
Kindly supply the reported HEMATOCRIT values for the records listed here.
Unit % implied. Number only.

Input line: Fill blank: measured HEMATOCRIT of the compound CCOC(=O)C1=C(C)NC(C)=C(C(=O)OCC)C1c1ccccc1/C=C/C(=O)OC(C)(C)C [LACIDIPINE] is ____.
Output line: 33.88

Input line: Next up: c1ccc2c(c1)Nc1ccccc1S2 [PHENOTHIAZINE]
Output line: 32.78

Input line: Cool, now CC(C)(c1ccc(O)cc1)c1ccc(O)cc1 [BISPHENOL A]
Output line: 32.87

Input line: Please give the result for COc1ccccc1OCCNCC(O)COc1cccc2[nH]c3ccccc3c12 (stereo not given) [CARVEDILOL] too.
Output line: 34.03

Input line: Proceed to COC(=O)Nc1nc2ccc(C(=O)c3ccccc3)cc2[nH]1 [MEBENDAZOLE]
Output line: 34.03

====

species: Rattus norvegicus; assay: DrugMatrix - Regimen: Daily Repeat; assay type: toxicity, organism-based, Sprague-Dawley; set-up: regimen Daily Repeat, gender Male, age 6-8 weeks; conditions: in vivo, po, 1500 mg/kg, 120 h, tissue Blood, route oral GAVAGE, dose level High, time 5 day, vehicle .5 % CMC
measurement.type: HEMOGLOBIN (G/DL)
Field format: number, assumed G/DL, no unit text.

Input line: Give its HEMOGLOBIN value. Item: Cc1ccc(S(=O)(=O)NC(=O)NN2CCCCCC2)cc1 [TOLAZAMIDE]
Output line: 14.3

Input line: Same again, this time with CC[C@H]1OC(=O)[C@H](C)[C@@H](O[C@H]2C[C@@](C)(OC)[C@@H](O)[C@H](C)O2)[C@H](C)[C@@H](O[C@@H]2O[C@H](C)C[C@H](N(C)C)[C@H]2O)[C@](C)(O)C[C@@H](C)C(=O)[C@H](C)[C@@H](O)[C@]1(C)O [ERYTHROMYCIN]
Output line: 15.9

Input line: Now the compound COc1ccc(Cl)cc1C(=O)NCCc1ccc(S(=O)(=O)NC(=O)NC2CCCCC2)cc1 [GLYBURIDE]
Output line: 14.7

Input line: Now the same for COc1cc(/C=C/C(=O)O)ccc1O [FERULATE]
Output line: 14.4

Input line: What about this compound? O=C(O)CCc1nc(-c2ccccc2)c(-c2ccccc2)o1 [OXAPROZIN]
Output line: 14.6
